Give measured Emax for each item. Keep answers brief.
targetOfAssay: human muscarinic M1 receptor (Homo sapiens, UniProt P11229)
Construct: expressed in transfected cells
Sequence (P11229 whole entry): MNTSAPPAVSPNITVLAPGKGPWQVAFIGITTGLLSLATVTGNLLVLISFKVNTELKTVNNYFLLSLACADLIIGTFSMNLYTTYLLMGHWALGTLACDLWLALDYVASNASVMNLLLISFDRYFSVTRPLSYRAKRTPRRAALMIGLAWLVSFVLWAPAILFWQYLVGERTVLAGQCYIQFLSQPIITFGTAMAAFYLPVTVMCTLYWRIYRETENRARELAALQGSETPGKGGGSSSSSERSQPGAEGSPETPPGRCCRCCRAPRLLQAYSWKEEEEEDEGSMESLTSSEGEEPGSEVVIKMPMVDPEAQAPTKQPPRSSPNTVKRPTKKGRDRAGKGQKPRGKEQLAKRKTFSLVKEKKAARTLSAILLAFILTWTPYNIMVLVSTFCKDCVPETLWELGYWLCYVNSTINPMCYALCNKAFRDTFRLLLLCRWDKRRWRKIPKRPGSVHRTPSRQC
measurementProtocol: Alphascreen Surefire phospho-ERK1/2 functional assay, M1
Format: cell-based
assayContext: CHO, read-out: M1 % Emax cf. ACh, CHO cells stably expressing human M1; Emax relative to ACh
Answers are plain numbers, in %.

Each molecule below has a recorded value; state its Emax.
1. CCCN1CC2(CCN(C3CC4(CCN(C(=O)OCC)C4)C3)CC2)OC1=O (single isomer, unassigned) [4-7 Isomer 2]
2. CCOC(=O)N1CCC2(CC(N3CCC4(CNC(=O)C4)C(F)C3)C2)C1 (single isomer, unassigned) [3-9 Isomer 2]

1: 104; 2: 62

Each molecule below has a recorded value; state its Emax.
1. CCOC(=O)N1CCC2(CC(N3CCC4(CC3)CC(=O)NC4Cc3ccccc3)C2)C1 (single isomer, unassigned) [3-8 Isomer 2]
2. CCN1NC(=O)CC12CCN(C1CC3(CCN(C(=O)OC)C3)C1)CC2 (single isomer, unassigned) [6-1 Isomer 2]

[110, 77]

====

targetOfAssay: human muscarinic M4 receptor (Homo sapiens, UniProt P08173)
Construct: expressed in transfected cells
Sequence (P08173 whole entry): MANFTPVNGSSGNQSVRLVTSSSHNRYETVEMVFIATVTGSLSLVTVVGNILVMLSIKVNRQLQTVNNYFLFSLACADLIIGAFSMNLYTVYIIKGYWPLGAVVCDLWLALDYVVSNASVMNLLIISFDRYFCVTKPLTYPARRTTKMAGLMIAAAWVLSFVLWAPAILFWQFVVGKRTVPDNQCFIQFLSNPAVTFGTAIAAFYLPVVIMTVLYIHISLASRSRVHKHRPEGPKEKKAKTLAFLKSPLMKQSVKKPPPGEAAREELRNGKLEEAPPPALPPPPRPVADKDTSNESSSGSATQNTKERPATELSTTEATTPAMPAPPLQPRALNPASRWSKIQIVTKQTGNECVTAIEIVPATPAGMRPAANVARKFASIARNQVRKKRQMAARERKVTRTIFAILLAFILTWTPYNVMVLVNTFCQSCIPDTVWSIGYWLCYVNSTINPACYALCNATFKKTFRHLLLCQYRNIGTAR
measurementProtocol: Alphascreen Surefire phospho-ERK1/2 functional assay, M4
Type: cell-based
assayContext: CHO cells stably expressing human M4; Emax relative to ACh
recordedEndpoint: M4 % Emax cf. ACh

compound	measuredValue
CCOC(=O)N1CCC2(CC(N3CCC4(CC3)OC(=O)N(C)C4CC)C2)C1 (single isomer, unassigned) [4-20 Isomer 2]	(9) %
CCOC(=O)N1CCC2(CC(N3CCC4(CC3)OC(=O)N(C)C4CC)C2)C1 (single isomer, unassigned) [4-20 Isomer 3]	(59) %
CCOC(=O)N1CCC2(CC(N3CCC4(CC3)OC(=O)NC4(C)C)C2)C1 (single isomer, unassigned) [4-27 Isomer 1]	(59) %
CCOC(=O)N1CCC2(CC(N3CCC4(CC3)CC(=O)NN4Cc3ccccc3)C2)C1 (single isomer, unassigned) [6-6 Isomer 2]	26) %

====

targetOfAssay: UniProt P20309
Sequence (P20309 whole entry): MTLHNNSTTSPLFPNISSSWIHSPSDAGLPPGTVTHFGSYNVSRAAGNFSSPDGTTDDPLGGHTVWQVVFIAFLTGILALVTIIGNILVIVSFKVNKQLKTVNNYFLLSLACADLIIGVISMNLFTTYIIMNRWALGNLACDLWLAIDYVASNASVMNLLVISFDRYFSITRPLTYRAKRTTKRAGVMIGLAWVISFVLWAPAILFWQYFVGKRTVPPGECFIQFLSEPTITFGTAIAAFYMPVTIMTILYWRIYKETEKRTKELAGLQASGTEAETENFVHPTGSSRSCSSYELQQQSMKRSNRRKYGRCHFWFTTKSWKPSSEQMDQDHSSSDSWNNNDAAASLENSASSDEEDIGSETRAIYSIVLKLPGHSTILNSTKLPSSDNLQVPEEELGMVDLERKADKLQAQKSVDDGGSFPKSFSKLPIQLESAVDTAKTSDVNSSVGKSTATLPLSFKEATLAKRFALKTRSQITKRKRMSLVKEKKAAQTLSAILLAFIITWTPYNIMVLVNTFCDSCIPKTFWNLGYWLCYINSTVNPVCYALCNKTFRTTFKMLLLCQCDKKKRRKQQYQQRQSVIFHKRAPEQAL
measurementProtocol: Alphascreen Surefire phospho-ERK1/2 functional assay, M3
assayContext: CHO, read-out: M3 % Emax cf. ACh, CHO cells stably expressing human M3; Emax relative to ACh
Binarize Emax at 4%; below is yes (1), at or above is no (0).

Lab note: Emax threshold 4%. Does this compound come in strictly under it? CCOC(=O)N1CCC2(CC(N3CCC4(CC3)CNC(=O)N4)C2)C1 (single isomer, unassigned) [5-2 Isomer 2]
no (0)

Lab note: Emax threshold 4%. Does this compound come in strictly under it? CCOC(=O)N1CC2(CCC(N3CCC4(CC3)OC(=O)NC4CC)C2)C1 (mixture of isomers) [8-1 mixture of diastereomers]
yes (1)

Lab note: Emax threshold 4%. Does this compound come in strictly under it? CCOC(=O)N1CCC2(CC(N3CCC4(CC3)CC(=O)NN4CC)C2)C1 (single isomer, unassigned) [6-2 Isomer 2]
no (0)

====

targetOfAssay: human muscarinic M1 receptor (Homo sapiens, UniProt P11229)
Construct: expressed in transfected cells
measurementProtocol: Alphascreen Surefire phospho-ERK1/2 functional assay, M1
Format: cell-based
assayContext: CHO cells stably expressing human M1; Emax relative to ACh

molecule	M1 % Emax cf. ACh
CCCN1C(=O)OC2(CCN(C3CC4(CCN(C(=O)OCC)C4)C3)CC2)C1CC (single isomer, unassigned) [4-23 Isomer 2]	(5) %
